From: ChEMBL document CHEMBL1149259

- Protocol Description: Half life in Beagle dog at 1 mg/kg, iv and 1 mg/kg, po
- Format: ADME, organism-based, Canis lupus familiaris
- Particulars: in vivo
Quick list: half-life per entry.

Using the record for `N#Cc1cnc(Nc2cc(CN3CCN(C(=O)CO)CC3)ccn2)s1` , report its half-life.
6.6 h

Now examine the next entry.
Using the record for `CC(=O)N1CCN(Cc2ccnc(Nc3ncc(C#N)s3)c2)CC1` , report its half-life.
7.2 h

###

- Protocol Description: Metabolic stability in rat liver microsome
- Assay type: ADME
- Particulars: liver microsomes
Value Type: half-life (min)
Dear colleague, please return just the value in min, with no unit written.

Using the record for `c1ccc(-c2cnc(Nc3cc(CN4CCCC4)ccn3)s2)cc1` , report its half-life.
8

###

- Species on record: Homo sapiens
- Protocol Description: Protein binding in human plasma
- Particulars: read-out: PPB (converted)
Quick list: fraction unbound per entry.
The answer should be written as a number, with no unit following it.

Using the record for `CN(C)C(=O)N1CCN(Cc2ccnc(Nc3ncc(C#N)s3)c2)CC1` , report its fraction unbound.
0.041

Now examine the next entry.
Using the record for `N#Cc1cnc(Nc2cc(CN3CCN(C(=O)CO)CC3)ccn2)s1` , report its fraction unbound.
0.262

###

- Measured Target: Vascular endothelial growth factor receptor 2 (Mus musculus)
- Sequence (P35918 whole entry): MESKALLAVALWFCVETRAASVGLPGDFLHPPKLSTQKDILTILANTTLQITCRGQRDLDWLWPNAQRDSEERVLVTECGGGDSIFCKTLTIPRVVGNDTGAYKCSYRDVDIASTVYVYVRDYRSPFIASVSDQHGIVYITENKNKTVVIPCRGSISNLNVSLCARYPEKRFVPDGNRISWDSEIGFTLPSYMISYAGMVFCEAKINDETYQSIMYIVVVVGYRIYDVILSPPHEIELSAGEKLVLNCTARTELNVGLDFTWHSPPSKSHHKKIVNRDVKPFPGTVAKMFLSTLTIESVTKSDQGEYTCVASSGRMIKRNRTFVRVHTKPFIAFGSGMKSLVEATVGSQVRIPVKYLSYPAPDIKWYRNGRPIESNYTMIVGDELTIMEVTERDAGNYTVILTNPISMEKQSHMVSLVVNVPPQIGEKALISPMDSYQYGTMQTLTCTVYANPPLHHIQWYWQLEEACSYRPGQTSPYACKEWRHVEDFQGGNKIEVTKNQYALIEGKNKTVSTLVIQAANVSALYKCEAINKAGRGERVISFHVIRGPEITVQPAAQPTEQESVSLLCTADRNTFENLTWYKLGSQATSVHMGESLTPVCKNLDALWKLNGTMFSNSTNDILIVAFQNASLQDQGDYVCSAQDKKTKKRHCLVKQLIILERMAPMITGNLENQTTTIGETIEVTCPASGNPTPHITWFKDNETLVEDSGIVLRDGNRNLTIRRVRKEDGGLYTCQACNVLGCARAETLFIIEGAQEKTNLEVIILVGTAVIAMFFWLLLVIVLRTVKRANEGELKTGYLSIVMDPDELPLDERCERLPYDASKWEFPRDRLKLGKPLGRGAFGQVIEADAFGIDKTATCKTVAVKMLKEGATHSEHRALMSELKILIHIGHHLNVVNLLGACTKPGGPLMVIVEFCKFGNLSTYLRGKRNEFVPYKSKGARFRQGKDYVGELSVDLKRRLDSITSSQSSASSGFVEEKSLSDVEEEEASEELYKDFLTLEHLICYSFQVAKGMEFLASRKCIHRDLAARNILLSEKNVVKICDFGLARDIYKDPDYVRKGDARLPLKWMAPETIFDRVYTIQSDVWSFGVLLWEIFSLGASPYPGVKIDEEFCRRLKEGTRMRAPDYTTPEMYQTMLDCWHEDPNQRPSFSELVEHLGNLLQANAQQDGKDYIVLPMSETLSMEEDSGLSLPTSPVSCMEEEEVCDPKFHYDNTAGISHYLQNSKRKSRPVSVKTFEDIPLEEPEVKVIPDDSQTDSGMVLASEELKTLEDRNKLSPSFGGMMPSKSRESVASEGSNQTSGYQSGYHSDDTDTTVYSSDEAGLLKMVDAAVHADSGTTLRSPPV
- Protocol Description: Inhibition of VEGF-induced mouse lung KDR phosphorylation
Value Type: IC50 (nM)
Dear colleague, please return just the value in nM, with no unit written.

Using the record for `CNC(=O)N1CCN(Cc2ccnc(Nc3ncc(C#N)s3)c2)CC1` , report its IC50.
90

###

- Protocol Description: Clearance in Beagle dog at 1 mg/kg, iv and 1 mg/kg, po
- Format: ADME, organism-based, Canis lupus familiaris
- Particulars: in vivo
Quick list: clearance per entry.
Dear colleague, please return just the value in mL/min/kg, with no unit written.

Worked cases, clearance given:
Using the record for `CNC(=O)N1CCN(Cc2ccnc(Nc3ncc(C#N)s3)c2)CC1` , report its clearance.
0.51

Using the record for `N#Cc1cnc(Nc2cc(CN3CCN(C(=O)CO)CC3)ccn2)s1` , report its clearance.
0.88

Using the record for `CS(=O)(=O)C1CCN(Cc2ccnc(Nc3ncc(C#N)s3)c2)CC1` , report its clearance.
1.8

Now examine the next entry.
Using the record for `CC(=O)N1CCN(Cc2ccnc(Nc3ncc(C#N)s3)c2)CC1` , report its clearance.
1.2
